The measurements presented in this section are drawn from patent US20250019450A1.

- system name: T1, cyno IL-12RB1 with C-terminal FLAG tag, transiently expressed on HEK-293T cells (cyno, UniProt A0A2K5VWV1 24-662)
- T1 construct: whole, on cells
- assay method text: FACS, periplasmic extract, HEK-293T
reported property: FOB (fold)

Completed entries (count: 5):
| binder | FOB, fold |
| --- | --- |
| VHH258B1 (VHH) VHH: QVQLVESGGGLVQAGGSLRLSCAASGRTFSSYVMGWFRQAPGQEREFVAAIMRNGIMTYYADSVKGRFTISRDNAKNTVYLQMNTLKPDDTAVYYCAAASRVGVSISQSSSYTSWGQGTQVTVSS | 91 |
| VHH238B1 (VHH) VHH: QLQLVESGGGLVQPGGSLRLSCAASGFTFSSYGMSWVRQAPGKGLEWVSYISAGGGTTTYVDFVKGRFTISRDNAKNMLYLQMNSLKPEDTAVYYCVHAADGSRGQGTQVTVSS | 44 |
| VHH174B1 (VHH) VHH: QVQLVESGGGAVQAGGSLRLSCAASGLTSRHYVMAWFRQAPGIEREFVASIWWGGSTYYADSVKDRFTISRDNAENTVYLQMNSLKPEDTAVYRCAVGTKIGTMGPRYDYWGQGTQVTVSS | 68 |
| VHH72B1 (VHH) VHH: EVQLVESGGGLVQAGGSLRLSCAASGLTFRNYAMAWFRQAPGKEREFVAGITWGGGLTHYVDSVKGRFTISRDNGKNTVYLQMNSLKSEDTAVYYCAGKTQGSTWYHLTPDGYDYWGQGTQVTVSS | 120 |
| VHH233B1 (VHH) VHH: QVQLVESGGGLVQAGGSLRLSCAASRSISSFNEMAWYRQAPGEQRELVATIVSTVGFTNYADSVKGRFTISRDNAKNTVYLQMNSLKAEDTAVYYCNARRISTDYWGQGTQVTVSS | 81 |

(I) VHH263B1 (VHH) VHH: EVQLVESGGGLVQAGGSLRLSCAASGSKFSFNAMGWYRQTPGKQRELVAIIINGDMINYADSVKGRFTISRDNAKNTMYLQMNSLKPEDTAVYYCKMTRYVYDYWGQGTQVTVSS
(II) VHH195B1 (VHH) VHH: QVQLVESGGGLVQAGGSLRLSCAASGRTFGTYAMGWFRQAPGKERDFVARISNSGAFTHYADSVKGRFTISRDNAKNTVYLHMNSLENGDTAAYYCVATRGTNSAYYTRSTMYEYWGQGTQVTVSS
(III) VHH32B1 (VHH) VHH: EVQLVESGGGLVQPGGSLRLSCAASGFTFQNYAMSWLRKAPGEGLEWVSVINSGGGSTLYADSVKGRFTISRDNAKNTLYLQMHSLKSEDTAVYFCAKRRDDSTFGSLLYTHRGQGTQVTVSS
// query Let's sort these by FOB, smallest first. Go ahead? Answer by listing the labels in the requested order.
// result II, I, III
